tested on: mice; assay: Mouse 'tetrad' of tests after i.v. administration (Example 2); conditions: Mus musculus, iv, read-out: Average ED50 for the four effects

| smiles.text | ED50, mg/kg |
| --- | --- |
| C[C@H](CO)NC(=O)CCC/C=C\C/C=C\C/C=C\C/C=C\C(C)(C)CCCCC#N | 0.025 |
| C[C@H](CO)NC(=O)CCC/C=C\C/C=C\C/C=C\C/C=C\C(C)(C)CCCCBr | 0.388 |
| C[C@H](CO)NC(=O)CCC/C=C\C/C=C\C/C=C\C/C=C\C(C)(C)CCCCO | 0.773 |
| COc1cc(CNC(=O)CCC/C=C\C/C=C\C/C=C\C/C=C\C(C)(C)CCCCBr)ccc1O | 0.068 |
